- assayed-system: CCR8 (Homo sapiens, UniProt P51685)
- Sequence (P51685 whole entry, the tested form may be a part): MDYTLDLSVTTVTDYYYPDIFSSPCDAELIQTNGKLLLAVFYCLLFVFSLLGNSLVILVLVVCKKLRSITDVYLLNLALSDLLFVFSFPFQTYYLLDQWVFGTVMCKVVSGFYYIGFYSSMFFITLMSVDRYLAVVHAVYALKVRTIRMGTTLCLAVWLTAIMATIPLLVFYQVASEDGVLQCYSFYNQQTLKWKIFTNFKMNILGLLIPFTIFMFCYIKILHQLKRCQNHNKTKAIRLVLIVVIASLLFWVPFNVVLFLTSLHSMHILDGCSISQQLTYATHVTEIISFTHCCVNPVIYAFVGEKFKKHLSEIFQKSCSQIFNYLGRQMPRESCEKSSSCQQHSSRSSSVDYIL
- protocol-summary: Tango assay (Tango-CCR8-Gal4-CHO-K1 cells, CCL1-stimulated, ONE-Glo luminescence)
- test-settings: Tango Assay IC50, Inhibition of CCR8 Tango cell in vitro
Structures can show the parent of a compound that is named as a salt.

{"compound": "O=S(=O)(NC1CCCCC1)c1ccc(-c2nc3ccccc3[nH]2)cc1", "censoring-sign": ">", "IC50 / nM": 10000}
{"compound": "Cc1ccccc1C(=O)Nc1ccc(S(=O)(=O)N[C@@H]2CCN3C(=O)CC[C@@H]3C2)c2ccccc12", "censoring-sign": "=", "IC50 / nM": 23}
{"compound": "CCCC(=O)N1CCC(NS(=O)(=O)c2ccc(Nc3ncnc4ccccc34)c3ccccc23)CC1", "censoring-sign": "=", "IC50 / nM": 1500}
{"compound": "Cc1cc(S(=O)(=O)N[C@H](C)C2CCN(C(=O)OC(C)(C)C)CC2)c(F)cc1NC(=O)c1ccccc1C", "censoring-sign": "=", "IC50 / nM": 914}
{"compound": "Cc1ccccc1C(=O)Nc1ccc(S(=O)(=O)NC(C)C=C2CCCCC2)c2ccccc12 (stereo not drawn)", "censoring-sign": "=", "IC50 / nM": 10}
{"compound": "CN1CCN(C(=O)N2CCC(NS(=O)(=O)c3ccc4[nH]c(-c5ccccc5)nc4c3)CC2)CC1", "censoring-sign": ">", "IC50 / nM": 10000}
{"compound": "Cc1ccccc1C(=O)Nc1ccc(S(=O)(=O)NC(=O)c2ccccc2N2CCCCC2)c2ccccc12", "censoring-sign": ">", "IC50 / nM": 10000}
{"compound": "Cc1ccccc1C(=O)Nc1ccc(S(=O)(=O)NC2CCOc3ccccc32)cc1 (stereo not drawn)", "censoring-sign": ">", "IC50 / nM": 10000}
{"compound": "CCCN1CCN(c2cccc(NS(=O)(=O)c3ccc(NC(=O)c4ccccc4C)c4ccccc34)c2C)CC1", "censoring-sign": ">", "IC50 / nM": 10000}
{"compound": "Cc1ccccc1C(=O)Nc1ccc(S(=O)(=O)N[C@H](C)C2CCNCC2)cc1C(F)(F)F [Compound 186A, hydrochloride]", "censoring-sign": "=", "IC50 / nM": 182}
{"compound": "Cc1ccccc1C(=O)Nc1ccc(S(=O)(=O)NC(C)c2nccs2)c2ccccc12 (stereo not drawn)", "censoring-sign": "=", "IC50 / nM": 2790}
{"compound": "Cc1cc(S(=O)(=O)N[C@H](C)C2CCNCC2)ccc1NC(=O)c1cccs1 [Compound 210A, hydrochloride]", "censoring-sign": "=", "IC50 / nM": 161}
{"compound": "Cc1ccccc1C(=O)Nc1cc(C)c(S(=O)(=O)N[C@H](C)C2CCNCC2)cc1Cl [Compound 187A, hydrochloride]", "censoring-sign": "=", "IC50 / nM": 6.3}
{"compound": "Cc1cc(S(=O)(=O)N[C@H](C)C2CCN(C(=O)OC(C)(C)C)CC2)ccc1NC(=O)c1ccccc1C", "censoring-sign": ">", "IC50 / nM": 10000}
{"compound": "Cc1cc(S(=O)(=O)NC(C(C)C)C2CCNCC2)ccc1NC(=O)c1ccccc1C (stereo not drawn) [Compound 224A, hydrochloride]", "censoring-sign": "=", "IC50 / nM": 494}

* * *

- assayed-system: UniProt:P51685
- protocol-summary: Tango assay (Tango-CCR8-Gal4-CHO-K1 cells, CCL1-stimulated, ONE-Glo luminescence)
- test-settings: Tango Assay IC50, Inhibition of CCR8 Tango cell in vitro
parameter: IC50 (µM)

{"compound": "CC(=O)Nc1ccccc1COc1ccc(S(=O)(=O)NC(C)C2CCCCC2)c2ccccc12 (stereo not shown)", "assayed-system": "UniProt:P51685", "censoring-sign": "=", "observed": 1.36}
{"compound": "COc1ccc(C(=O)Nc2ccc(S(=O)(=O)N[C@H](C)C3CCN(C)CC3)cc2C)c(C)c1", "assayed-system": "UniProt:P51685", "censoring-sign": "=", "observed": 0.003}
{"compound": "CC(NS(=O)(=O)c1cccc(C(=O)O)c1)C1CCCCC1 (stereo not shown)", "assayed-system": "UniProt:P51685", "censoring-sign": ">", "observed": 10}
{"compound": "CCOC(=O)N1CCCC(C(=O)NS(=O)(=O)c2ccc(NC(=O)c3ccccc3C)c3ccccc23)C1 (stereo not shown)", "assayed-system": "UniProt:P51685", "censoring-sign": ">", "observed": 10}

* * *

- assayed-system: CCR8 (Homo sapiens, UniProt P51685)
- protocol-summary: Tango assay (Tango-CCR8-Gal4-CHO-K1 cells, CCL1-stimulated, ONE-Glo luminescence)
- test-settings: Tango Assay IC50, Inhibition of CCR8 Tango cell in vitro
Counter-ions that a name gives are not always drawn.
Note to self: IC50 under 60 nM means rule met, ties and anything higher get rule not met.

{"compound": "Cc1cc(S(=O)(=O)N[C@H](C)C2CCNCC2)ccc1NC(=O)C1CCCCC1 [Compound 208A, hydrochloride]", "assayed-system": "CCR8 (Homo sapiens, UniProt P51685)", "label-class": "rule met"}
{"compound": "Cc1ccccc1C(=O)Nc1ccc(S(=O)(=O)N[C@H](C)C2CCN(C(=O)OC(C)(C)C)CC2)c(F)c1C", "assayed-system": "CCR8 (Homo sapiens, UniProt P51685)", "label-class": "rule not met"}
{"compound": "Cc1cc(S(=O)(=O)N[C@H](C)C2CCNCC2)ccc1NC(=O)c1cncs1 [Compound 252A, hydrochloride]", "assayed-system": "CCR8 (Homo sapiens, UniProt P51685)", "label-class": "rule not met"}
{"compound": "Cc1ccccc1C(=O)Nc1ccc(S(=O)(=O)NC2CCNc3ccccc32)c2ccccc12 (stereo not shown)", "assayed-system": "CCR8 (Homo sapiens, UniProt P51685)", "label-class": "rule not met"}
{"compound": "Cc1cc(S(=O)(=O)N[C@H](C)C2CCN(C)CC2)ccc1NC(=O)c1c(C)cccc1F", "assayed-system": "CCR8 (Homo sapiens, UniProt P51685)", "label-class": "rule met"}
{"compound": "Cc1cc(S(=O)(=O)N[C@H](C)C2CCN(C)CC2)ccc1NC1(c2ccccc2)COC1", "assayed-system": "CCR8 (Homo sapiens, UniProt P51685)", "label-class": "rule not met"}
{"compound": "Cc1ccccc1C(=O)Nc1ccc(S(=O)(=O)N[C@H](C)C2CCNCC2)c(F)c1C [Compound 177A, hydrochloride]", "assayed-system": "CCR8 (Homo sapiens, UniProt P51685)", "label-class": "rule met"}

* * *

- assayed-system: CCR8 (Homo sapiens)
- protocol-summary: Tango assay (Tango-CCR8-Gal4-CHO-K1 cells, CCL1-stimulated, ONE-Glo luminescence)
- test-settings: Tango Assay IC50, Inhibition of CCR8 Tango cell in vitro
pIC50: −log10 of the molar value. Counter-ions that a name gives are not always drawn.

{"compound": "Cc1cc(S(=O)(=O)N[C@H](C)C2CCNCC2)ccc1NC(=O)C12CCC(CC1)CC2 [Compound 309, hydrochloride]", "censoring-sign": "=", "pIC50": 8.00}
{"compound": "CCCC(=O)N1CCC(NS(=O)(=O)c2ccc(N3C(=O)c4ccccc4C3=O)cc2)CC1 [Compound 118]", "censoring-sign": "<", "pIC50": 5.00}
{"compound": "Cc1cc(S(=O)(=O)N[C@H](C)C2CCNCC2)ccc1NC(=O)c1cccc2c1CCC2 [Compound 310, hydrochloride]", "censoring-sign": "=", "pIC50": 8.30}
{"compound": "COc1ccccc1C(C)NS(=O)(=O)c1ccc(NC(=O)c2ccccc2C)c2ccccc12 (centres unmarked) [Compound 51]", "censoring-sign": "<", "pIC50": 5.00}
{"compound": "COc1cc(NC(=O)c2ccccc2C)c(C)cc1S(=O)(=O)N[C@H](C)C1CCNCC1 [Compound 314, hydrochloride]", "censoring-sign": "=", "pIC50": 7.77}
{"compound": "CCCN1CCN(c2ccc(C)c(NS(=O)(=O)c3ccc(NC(=O)c4ccccc4C)c4ccccc34)c2)CC1 [Compound 93]", "censoring-sign": "<", "pIC50": 5.00}
{"compound": "Cc1cc(S(=O)(=O)N[C@H](C)C2CCNCC2)ccc1NC(=O)c1ccsc1 [Compound 211A, hydrochloride]", "censoring-sign": "=", "pIC50": 7.02}
{"compound": "Cc1cc(S(=O)(=O)N[C@H](C)C2CCN(CCO)CC2)ccc1NC(=O)c1ccccc1C [Compound 205]", "censoring-sign": "=", "pIC50": 7.39}
{"compound": "Cc1cc(S(=O)(=O)NC(c2ccccc2)C2CCNCC2)ccc1NC(=O)c1ccccc1C (centres unmarked) [Compound 227A]", "censoring-sign": "<", "pIC50": 4.00}
{"compound": "Cc1ccccc1C(=O)Nc1cc(Cl)c(S(=O)(=O)N[C@@H](C)C2CCN(C)CC2)cc1Cl [Compound 307, hydrochloride]", "censoring-sign": "<", "pIC50": 4.00}
{"compound": "Cc1ccccc1C(=O)Nc1c(F)cc(S(=O)(=O)N[C@H](C)C2CCNCC2)cc1Cl [Compound 304, hydrochloride]", "censoring-sign": "=", "pIC50": 8.52}
{"compound": "Cc1ccccc1C(=O)Nc1cc(F)c(S(=O)(=O)N[C@@H](C)C2CCNCC2)cc1Cl [Compound 242B, hydrochloride]", "censoring-sign": "<", "pIC50": 4.00}
{"compound": "Cc1ccccc1C(=O)Nc1ccc(S(=O)(=O)NC(C)C2CCCCN2C(=O)OC(C)(C)C)c2ccccc12 (single isomer, unassigned) [Compound 67]", "censoring-sign": "=", "pIC50": 6.55}
{"compound": "Cc1ccccc1C(=O)Nc1ccc(S(=O)(=O)Nc2ccc3c(c2)C(N(C)C(=O)CN(C)C)CCC3)c2ccccc12 (centres unmarked) [Compound 97]", "censoring-sign": "<", "pIC50": 5.00}

Reference source: patent US12552753B2
